- TARGET OR TEST SYSTEM: human Cereblon WT GST-tagged protein (Homo sapiens (Human), UniProt Q96SW2)
- Sequence (Q96SW2 whole entry): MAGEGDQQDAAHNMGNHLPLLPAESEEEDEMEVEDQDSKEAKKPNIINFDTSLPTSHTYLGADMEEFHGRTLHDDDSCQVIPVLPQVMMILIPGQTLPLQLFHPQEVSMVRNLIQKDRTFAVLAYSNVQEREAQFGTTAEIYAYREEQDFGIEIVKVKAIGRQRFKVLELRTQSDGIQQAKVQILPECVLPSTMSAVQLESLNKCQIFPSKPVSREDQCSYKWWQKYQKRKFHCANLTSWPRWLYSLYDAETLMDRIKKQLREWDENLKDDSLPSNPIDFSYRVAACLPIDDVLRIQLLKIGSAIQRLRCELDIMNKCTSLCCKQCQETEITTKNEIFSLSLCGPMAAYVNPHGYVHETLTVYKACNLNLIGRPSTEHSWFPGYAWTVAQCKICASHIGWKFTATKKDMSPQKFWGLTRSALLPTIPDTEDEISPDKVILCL
READOUT KIND: pIC50
The read-out pIC50 is expressed as -log10 of concentration in moles per litre.

Consider the worked cases shown below.
> print(dat)
                                   molecule  assay.result
1  O=C1CCC(N2Cc3cc(CN4C5CC4CN(C(=O)C4=C(c6ccc(F)cc6)CCCC4)C5)c(F)cc3C2=O)C(=O)N1 (stereo not shown)          5.92
2  CC1(C)CCC(CN2C3CC2CN(Cc2cc(F)c4c(c2)CN(C2CCC(=O)NC2=O)C4=O)C3)=C(c2ccc(Cl)cc2)C1 (stereo not shown)          6.10
3  O=C1CCC(N2Cc3c(CN4C5CC4CN(C(=O)C4=C(c6ccc(F)cc6)CCCC4)C5)cccc3C2=O)C(=O)N1 (stereo not shown)          5.95

API: the following record is the query input.
Task: Please report the measured pIC50 for CC1(C)CCC(CN2C3CCC2CN(Cc2ccc4c(c2)CN(C2CCC(=O)NC2=O)C4=O)C3)=C(c2ccc(F)cc2)C1 (stereo not shown) tested on human Cereblon WT GST-tagged protein (Homo sapiens (Human), UniProt Q96SW2).
Result: 5.91

====

- TARGET OR TEST SYSTEM: human Cereblon WT GST-tagged protein (Homo sapiens (Human), UniProt Q96SW2)
IC50 under 600 nM gets condition met, anything at or over 600 nM gets condition not met.

Task: Record O=C1CCC(N2Cc3cc(CN4CCN(Cc5cccc(-c6ccco6)c5)CC4)ccc3C2=O)C(=O)N1 (stereo not shown) : is its IC50 strictly below 600 nM?
Result: condition met

Task: # TODO verify IC50 < 600 nM strictly for this compound: CC1(C)CCC(CN2C3CCC2CN(C(=O)c2ccc4c(c2)CN(C2CCC(=O)NC2=O)C4=O)C3)=C(c2ccc(F)cc2)C1 (stereo not shown)
Result: condition not met

Task: Report whether reported IC50 is lower than 600 nM (strictly) for O=C1CCC(N2Cc3cc(CC4CN(Cc5ccccc5-c5ccc(Cl)cc5)C4)ccc3C2=O)C(=O)N1 (stereo not shown)
Result: condition met

Task: Hello, I'm reviewing records and need to know if IC50 of O=C1CCC(N2Cc3cc(C(=O)N4CC5CCC(C4)N5Cc4ccccc4-c4ccc(Cl)cc4)ccc3C2=O)C(=O)N1 (stereo not shown) is below 600 nM. Could you check?
Result: condition not met

Task: Just wondering, is IC50 of O=C1CCC(N2Cc3cc(CN4CC5CCC(C4)N5Cc4ccccc4-c4ccc(Cl)cc4)ccc3C2=O)C(=O)N1 (stereo not shown) below 600 nM?
Result: condition met

Task: IC50 strictly < 600 nM for this compound? O=C1CCC(N2Cc3cc(C(=O)N4CCCN(Cc5ccccc5-c5ccc(Cl)cc5)CC4)ccc3C2=O)C(=O)N1 (stereo not shown)
Result: condition not met

Task: Is it true that IC50 reported for CC1(C)CCC(C(=O)N2C3CCC2CN(c2ccc4c(c2)CN(C2CCC(=O)NC2=O)C4=O)C3)=C(c2ccc(F)cc2)C1 (stereo not shown) is less than 600 nM?
Result: condition not met

====

This document collects pIC50 values reported for human Cereblon WT GST-tagged protein (Homo sapiens (Human)).
Note: pIC50 values are expressed as the negative base-10 logarithm of concentration in M.

As a guide, the following entries are already answered.
> print(dat)
                                   molecule  assay.result
1  O=C1CCC(N2Cc3c(ccc(CN4C5CC4CN(Cc4ccccc4-c4ccc(Cl)cc4)C5)c3F)C2=O)C(=O)N1 (centres unmarked)          6.10
2  O=C1CCC(N2Cc3cc(CN4C5CC4CN(C(=O)c4ccccc4-c4ccc(Cl)cc4)C5)cc(F)c3C2=O)C(=O)N1 (centres unmarked)          6.19
3  CC1(C)CCC(CN2CCC(Nc3ccc4c(c3)CN(C3CCC(=O)NC3=O)C4=O)CC2)=C(c2ccc(Cl)cc2)C1 (centres unmarked)          5.75
4  O=C1CCC(N2Cc3cc(C(=O)N4C5CC4CN(C(=O)C4=C(c6ccc(F)cc6)CCCC4)C5)ccc3C2=O)C(=O)N1 (centres unmarked)          5.77

Task: Return reported pIC50 for target or system human Cereblon WT GST-tagged protein (Homo sapiens (Human)), item O=C1CCC(N2Cc3cc(CN4CCN(C(=O)c5ccccc5-c5ccc(Cl)cc5)CC4C(F)(F)F)ccc3C2=O)C(=O)N1 (centres unmarked) .
Result: 6.28

Task: // fetch pIC50; item: O=C1CCC(N2Cc3cc(C(=O)N4C5CCC4CN(Cc4ccccc4-c4ccc(Cl)cc4)C5)ccc3C2=O)C(=O)N1 (centres unmarked) ; system: human Cereblon WT GST-tagged protein (Homo sapiens (Human))
Result: 5.92

Task: Give the observed pIC50 of CC1(C)CCC(C(=O)N2CC3CCC2CN3Cc2ccc3c(c2)CN(C2CCC(=O)NC2=O)C3=O)=C(c2ccc(F)cc2)C1 (centres unmarked) for human Cereblon WT GST-tagged protein (Homo sapiens (Human)).
Result: 6.37

Task: Report pIC50 under test system human Cereblon WT GST-tagged protein (Homo sapiens (Human)) for CC1(C)CCC(C(=O)N2CC3CN(C(=O)c4ccc5c(c4)CN(C4CCC(=O)NC4=O)C5=O)CC3C2)=C(c2ccc(Cl)cc2)C1 (centres unmarked) .
Result: 6.18

Task: Give measured pIC50 for CC1(C)CCC(C(=O)N2CC3CN(Cc4ccc5c(c4)CN(C4CCC(=O)NC4=O)C5=O)CC3C2)=C(c2ccc(F)cc2)C1 (centres unmarked) (human Cereblon WT GST-tagged protein (Homo sapiens (Human))).
Result: 6.30

Task: Param request: pIC50 | system human Cereblon WT GST-tagged protein (Homo sapiens (Human)) | item CC1(C)CC(c2ccc(Cl)cc2)=C(CN2CCN(Cc3ccc4c(c3)CN(C3CCC(=O)NC3=O)C4=O)CC2)CO1 (centres unmarked)
Result: 6.24

Task: Lab note: record pIC50 of O=C1CCC(N2Cc3cc(CN4CCN(C(=O)c5ccccc5-c5ccc(F)cc5)CC4)ccc3C2=O)C(=O)N1 (centres unmarked) tested on human Cereblon WT GST-tagged protein (Homo sapiens (Human)).
Result: 5.94

Task: Param request: pIC50 | system human Cereblon WT GST-tagged protein (Homo sapiens (Human)) | item CC1(C)CCC(CN2CCC(Nc3ccc4c(c3)CN(C3CCC(=O)NC3=O)C4=O)CC2)=C(c2ccc(F)cc2)C1 (centres unmarked)
Result: 5.90

Task: Param request: pIC50 | system human Cereblon WT GST-tagged protein (Homo sapiens (Human)) | item O=C1CCC(N2Cc3cc(CN4CC5CC(C4)N5C(=O)c4ccccc4-c4ccc(Cl)cc4)ccc3C2=O)C(=O)N1 (centres unmarked)
Result: 6.20

Task: Give pIC50 only, for CC1(C)CCC(CN2CC3CCC2CN3Cc2cccc3c2C(=O)N(C2CCC(=O)NC2=O)C3)=C(c2ccc(Cl)cc2)C1 (centres unmarked) , using human Cereblon WT GST-tagged protein (Homo sapiens (Human)) data.
Result: 5.72

====

- System: SU-DHL-4 cells
- MEASUREMENT NOTES: Tumor cell proliferation IC50 (CCK-8), SU-DHL-4
- DETAILS: Homo sapiens, SU-DHL-4, 72 h, read-out: IC50 for inhibiting the proliferation of tumor cells, SU-DHL-4
pIC50: −log10 of the molar value.
Overview of reported pIC50 across a group of molecules:

> print(dat)
                                   molecule  readout.kind  assay.result
1  Nc1cccc2c1C(=O)N(C1CCC(=O)NC1=O)C2=O (stereo not drawn) [pomalidomide, reference compound]         pIC50        < 5.00
2  O=C1CCC(N2Cc3cc(CN4CCN(Cc5ccccc5-c5ccc(Cl)cc5)CC4)ccc3C2=O)C(=O)N1 (stereo not drawn)         pIC50  6.30 to 7.00
3  CC1(C)CCC(CN2CCN(Cc3ccc4c(c3F)CN(C3CCC(=O)NC3=O)C4=O)CC2)=C(c2ccc(Cl)cc2)C1 (stereo not drawn)         pIC50  5.00 to 5.30

Task: Give reported pIC50 value for O=C1CCC(N2Cc3cc(CN4CCN(Cc5ccccc5-c5ccc(Cl)cc5)CC4)c(F)cc3C2=O)C(=O)N1 (stereo not drawn)
Result: 7.00 to 7.30

Task: Specify pIC50 for O=C1CCC(N2Cc3c(ccc(CN4CCN(Cc5ccccc5-c5ccc(Cl)cc5)CC4)c3F)C2=O)C(=O)N1 (stereo not drawn) and stop.
Result: 6.30 to 7.00

Task: Fill in pIC50 for record CC1(C)CCC(CN2CCN(Cc3cc4c(cc3F)C(=O)N(C3CCC(=O)NC3=O)C4)CC2)=C(c2ccc(Cl)cc2)C1 (stereo not drawn)
Result: 6.30 to 7.00

====

Entries with reported IC50 on human Cereblon WT GST-tagged protein (Homo sapiens (Human), UniProt Q96SW2)
Give the number; µM is assumed, so skip it.

Example entries begin here.
> print(dat)
                                   compound                     target.or.test.system  readout.kind  assay.result
1  O=C1CCC(N2Cc3cc(CN4CCN(Cc5cccc(-c6ccc(Cl)cc6)c5)CC4)ccc3C2=O)C(=O)N1 (stereo not shown) [GT-05629]  human Cereblon WT GST-tagged protein (Homo sapiens (Human), UniProt Q96SW2)          IC50          1.28
2  CC1(C)CCC(C(=O)N2CC3(C2)CN(C(=O)c2ccc4c(c2)CN(C2CCC(=O)NC2=O)C4=O)C3)=C(c2ccc(Cl)cc2)C1 (stereo not shown) [GT-05682]  human Cereblon WT GST-tagged protein (Homo sapiens (Human), UniProt Q96SW2)          IC50          0.57
3  O=C1CCC(N2Cc3cc(CN4CCN(CC5=C(c6ccc(F)cc6)CCCC5)CC4)ccc3C2=O)C(=O)N1 (stereo not shown) [GT-04193]  human Cereblon WT GST-tagged protein (Homo sapiens (Human), UniProt Q96SW2)          IC50          0.46

Pending compound:
Task: State, for human Cereblon WT GST-tagged protein (Homo sapiens (Human), UniProt Q96SW2), measured IC50 of the compound listed here: CC1(C)CCC(C(=O)N2CCC(Nc3ccc4c(c3)CN(C3CCC(=O)NC3=O)C4=O)CC2)=C(c2ccc(F)cc2)C1 (stereo not shown) [GT-05786]
Result: 1.07
